Origin of measurements: ChEMBL document CHEMBL1155250

Please respond with reported IC50 for every item in the list.
Target: D(3) dopamine receptor (Homo sapiens)
Sequence (P35462 whole entry): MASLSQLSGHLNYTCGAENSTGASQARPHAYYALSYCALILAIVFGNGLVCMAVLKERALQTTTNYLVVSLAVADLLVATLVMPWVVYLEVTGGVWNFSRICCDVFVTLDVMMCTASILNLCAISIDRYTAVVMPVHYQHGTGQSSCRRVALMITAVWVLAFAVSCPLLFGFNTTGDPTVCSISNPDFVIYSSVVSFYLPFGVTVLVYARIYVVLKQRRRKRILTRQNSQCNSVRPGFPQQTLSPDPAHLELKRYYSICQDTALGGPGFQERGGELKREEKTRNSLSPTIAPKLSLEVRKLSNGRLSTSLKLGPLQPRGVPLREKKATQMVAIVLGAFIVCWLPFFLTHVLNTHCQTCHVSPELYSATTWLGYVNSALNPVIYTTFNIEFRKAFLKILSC
Experiment: Displacement of [3H]spiperone from human cloned dopamine D3 receptor expressed in CHO-K1 cells

QUERY: Entry CN(C)CCn1cc(S(=O)(=O)c2cccc3ccccc23)c2cccnc21 : reported IC50 = ?
RESULT: 1.56 µM

QUERY: Now the molecule NCCn1cc(S(=O)(=O)c2cccc(Cl)c2)c2cccnc21
RESULT: > 5 µM

QUERY: Now the molecule NCCn1cc(S(=O)(=O)c2ccccc2)c2cccnc21
RESULT: > 5 µM

QUERY: Now the molecule CN(C)CCn1cc(S(=O)(=O)c2cccc(Cl)c2)c2cccnc21
RESULT: > 5 µM

QUERY: Now the molecule CN(C)CCn1cc(S(=O)(=O)c2cccc(F)c2)c2cccnc21
RESULT: > 5 µM

* * *

Target: 5-hydroxytryptamine receptor 6 (Homo sapiens, UniProt P50406)
Sequence (P50406 whole entry): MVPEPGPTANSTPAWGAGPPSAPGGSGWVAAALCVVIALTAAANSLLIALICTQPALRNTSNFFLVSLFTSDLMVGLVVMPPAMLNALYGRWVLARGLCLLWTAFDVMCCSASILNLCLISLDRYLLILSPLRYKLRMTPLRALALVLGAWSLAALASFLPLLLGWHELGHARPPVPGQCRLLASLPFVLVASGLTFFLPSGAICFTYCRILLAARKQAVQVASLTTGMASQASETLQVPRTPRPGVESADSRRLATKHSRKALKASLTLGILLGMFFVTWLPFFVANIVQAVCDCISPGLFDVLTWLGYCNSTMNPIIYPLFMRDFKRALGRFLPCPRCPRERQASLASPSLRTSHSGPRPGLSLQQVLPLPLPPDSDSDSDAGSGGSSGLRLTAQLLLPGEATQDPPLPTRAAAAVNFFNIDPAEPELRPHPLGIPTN
Please respond with reported Ki for every item in the list.
Field: numeric (nM). Do not append units.

QUERY: Entry CN(C)CCn1cc(S(=O)(=O)c2ccc(F)cc2)c2cccnc21 : reported Ki = ?
RESULT: 45

QUERY: Now the compound Cc1c(S(=O)(=O)c2ccccc2)c2cccnc2n1CCN(C)C
RESULT: 4.7

QUERY: Now the compound CN(C)CCn1cc(S(=O)(=O)c2c(Cl)nc3sccn23)c2cccnc21
RESULT: 0.9

QUERY: Now the compound NCCn1cc(S(=O)(=O)c2ccccc2)c2cccnc21
RESULT: 5.5

QUERY: Now the compound NCCn1cc(S(=O)(=O)c2ccccc2C(F)(F)F)c2cccnc21
RESULT: 2.1

QUERY: Now the compound NCCn1cc(S(=O)(=O)c2cccc(C(F)(F)F)c2)c2cccnc21
RESULT: 2.1

QUERY: Now the compound NCCn1cc(S(=O)(=O)c2cccc3ccccc23)c2cccnc21
RESULT: 1.6

QUERY: Now the compound NCCn1cc(S(=O)(=O)c2cccc(Cl)c2)c2cccnc21
RESULT: 2

* * *

Molecular target: 5-hydroxytryptamine receptor 1D (Homo sapiens) (UniProt P28221)
Sequence (P28221 whole entry): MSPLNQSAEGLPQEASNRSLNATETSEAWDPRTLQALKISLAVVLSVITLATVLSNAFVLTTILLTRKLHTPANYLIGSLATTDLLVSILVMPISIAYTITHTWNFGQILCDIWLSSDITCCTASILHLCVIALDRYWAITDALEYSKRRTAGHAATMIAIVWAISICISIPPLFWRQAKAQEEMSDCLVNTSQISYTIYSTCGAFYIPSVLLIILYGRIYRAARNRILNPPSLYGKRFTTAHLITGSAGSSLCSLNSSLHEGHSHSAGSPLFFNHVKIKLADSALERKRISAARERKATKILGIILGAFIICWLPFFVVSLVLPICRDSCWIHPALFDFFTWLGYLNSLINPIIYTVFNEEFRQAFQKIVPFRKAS
Assay: Displacement of [3H]5-HT from human cloned 5HT1D receptor expressed in CHO cells at 1 uM
Format: cell-based
VALUE_TYPE: inhibition
Number first, unit second: that is the form wanted.

QUERY: Lookup: inhibition / 5-hydroxytryptamine receptor 1D (Homo sapiens) (UniProt P28221) / CN(C)CCn1cc(S(=O)(=O)c2cccc3ccccc23)c2cccnc21
RESULT: 0%

QUERY: Now the compound CN(C)CCn1cc(S(=O)(=O)c2cccc(Cl)c2)c2cccnc21
RESULT: 10%

QUERY: Now the compound NCCn1cc(S(=O)(=O)c2ccccc2)c2cccnc21
RESULT: 16%

QUERY: Now the compound CN(C)CCn1cc(S(=O)(=O)c2cccc(F)c2)c2cccnc21
RESULT: 16%

* * *

Target: 5-hydroxytryptamine receptor 2C (Homo sapiens, UniProt P28335)
Sequence (P28335 whole entry): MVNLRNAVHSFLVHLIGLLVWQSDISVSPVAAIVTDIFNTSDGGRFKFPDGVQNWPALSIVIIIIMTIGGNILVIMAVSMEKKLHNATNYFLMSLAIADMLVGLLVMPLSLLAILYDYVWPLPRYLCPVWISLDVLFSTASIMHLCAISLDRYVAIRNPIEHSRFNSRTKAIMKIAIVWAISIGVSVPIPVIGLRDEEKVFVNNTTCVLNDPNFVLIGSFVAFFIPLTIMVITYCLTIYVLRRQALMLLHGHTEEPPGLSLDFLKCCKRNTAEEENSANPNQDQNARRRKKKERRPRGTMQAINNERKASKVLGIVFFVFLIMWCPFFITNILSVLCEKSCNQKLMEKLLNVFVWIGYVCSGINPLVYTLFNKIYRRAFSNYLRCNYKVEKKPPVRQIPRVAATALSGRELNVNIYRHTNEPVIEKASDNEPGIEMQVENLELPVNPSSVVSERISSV
Assay: Displacement of [3H]5-HT from human cloned 5HT2C receptor expressed in CHO cells
Please respond with reported IC50 for every item in the list.

QUERY: Entry CN(C)CCn1cc(S(=O)(=O)c2cccc3ccccc23)c2cccnc21 : reported IC50 = ?
RESULT: 1140 nM

QUERY: Now the compound NCCn1cc(S(=O)(=O)c2cccc(Cl)c2)c2cccnc21
RESULT: 44 nM

QUERY: Now the compound CN(C)CCn1cc(S(=O)(=O)c2cccc(Cl)c2)c2cccnc21
RESULT: 477 nM

QUERY: Now the compound CN(C)CCn1cc(S(=O)(=O)c2cccc(F)c2)c2cccnc21
RESULT: 644 nM

QUERY: Now the compound NCCn1cc(S(=O)(=O)c2ccccc2)c2cccnc21
RESULT: > 5000 nM
